Exercise: for every item that follows, state its recorded nuclei count.
# method.description: endothelial E-selectin expression blockers – imaging, HUVEC, immunofluorescence, MLSMR starter and 10KST1 sets, primary screen (AID 487);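 further: 100% = median nuclei count of all wells on the same plate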
# protocol.conditions: HUVEC TNFalpha-induced E-selectin immunofluorescence imaging, at 2 µM; measured here: cell number, toxicity
One number for each entry, in %.

Example cases with answers are listed next.
- compound: "CC(=O)N1CCc2cc(S(=O)(=O)CCC(=O)N3CCN(C(=O)c4ccco4)CC3)ccc21"
  nuclei count [%]: 116
- compound: "CCn1c(=N)n(CC(=O)C23CC4CC(CC(C4)C2)C3)c2ccccc21"
  nuclei count [%]: 117
- compound: "Cc1ccc(NC(=O)CSc2nnc(NC(=O)CN3CCOCC3)s2)cc1"
  nuclei count [%]: 106
- compound: "Cn1cnnc1SCC(=O)Nc1sc2c(c1C#N)CCCCC2"
  nuclei count [%]: 108
- compound: "COc1c2ccoc2nc2c(OC)c(OCC(O)C(C)(C)O)ccc12 (stereo unspecified)"
  nuclei count [%]: 138

The following compounds each have a reported value; give each one's nuclei count.
1. O=C1NC(c2ccccc2)(C(F)(F)F)SC2=NCCCN12 (stereo unspecified)
2. CCOc1cc(C2C(C(=O)OC(C)C)=C(C)N=C3SCCC(=O)N32)ccc1OC(C)=O (stereo unspecified)
3. O=C(/C=N/O)Nc1cccnc1

154
105
98.5

Can you give me nuclei count for all of these, one by one?
1. O=C(NC(NC1CCS(=O)(=O)C1)C(=O)c1cccs1)c1ccccc1 (stereo unspecified)
2. Cc1cc(-c2ccccc2)c2c3c(cn2n1)c(=O)n(C)c(=O)n3C
3. CCOCCCNC(=O)c1ccc2c(c1)ncn2C1CCCC1

1. 96.3
2. 86.7
3. 94.4

---

Give NADPH fluorescence slope for every item shown.
# experimental.system: Voltage-gated potassium channel subunit beta-2 (Rattus norvegicus)
# method.description: enhancers of rat Kvbeta2 NADPH turnover – biochemical, NADPH fluorescence, primary screen (AID 623);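 further: fluorescence intensity change per second fitted from 20 to 320 s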
# protocol.conditions: Recombinant KvBeta, NADPH fluorescence decrease slope, 10 min; at 10 µM; stronger effect = lower value
Answers are plain numbers.

These recorded examples may help you get a feel for the data.
- molecule: "COc1cccc(C(=O)CSc2nnc(COc3cccc4cccnc34)o2)c1"
  NADPH fluorescence slope: "3.4e-05"
- molecule: "COc1ccc(C(CNC(=O)CN2C(=O)NC3(CC(C)CC(C)(C)C3)C2=O)N2CCOCC2)cc1 (stereo not given)"
  NADPH fluorescence slope: "3.8e-05"
- molecule: "CC(C)Cn1cc(C(=O)NCC2CCCO2)c2c3ccccc3n(C)c2c1=O (stereo not given)"
  NADPH fluorescence slope: "-3.1e-05"

I'm hoping you can list NADPH fluorescence slope for every molecule here, please.
1. CCOC(=O)C1CCN(C(=O)CSc2n[nH]c(=O)[nH]c2=O)CC1
2. O=C(NC1CC2CCC1C2)C1COc2ccccc2O1 (stereo not given)

-5.5e-05
-3.9e-05

---

# experimental.system: Voltage-gated potassium channel subunit beta-2 (Rattus norvegicus) (UniProt P62483)
# Sequence (P62483 whole entry, looked up): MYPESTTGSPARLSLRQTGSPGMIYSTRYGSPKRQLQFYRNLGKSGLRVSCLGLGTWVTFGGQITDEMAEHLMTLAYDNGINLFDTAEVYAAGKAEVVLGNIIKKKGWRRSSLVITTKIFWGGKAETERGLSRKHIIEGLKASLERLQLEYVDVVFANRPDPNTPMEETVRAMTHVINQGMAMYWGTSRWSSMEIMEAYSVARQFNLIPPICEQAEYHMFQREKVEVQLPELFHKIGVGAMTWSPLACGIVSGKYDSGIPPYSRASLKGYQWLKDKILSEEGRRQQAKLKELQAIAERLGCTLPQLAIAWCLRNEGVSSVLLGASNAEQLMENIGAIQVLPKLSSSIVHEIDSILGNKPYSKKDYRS
# method.description: inhibitors of rat Kvbeta2 reductase activity – biochemical, NADPH fluorescence, primary screen (AID 622);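 further: slope of raw intensity against log time taken from 70 to 1610 s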
# protocol.conditions: recombinant KvBeta, 4-cyanobenzaldehyde reduction, at 10 µM, stronger effect = higher value
# fluorescence slope >= -0.5 gives rule met, anything below gives rule not met

For orientation, consider the following solved cases.
- compound: "O=C(CSc1ncnc2sc3c(c12)CCCCC3)NCc1ccco1"
  category.label: "rule met"
- compound: "Cc1nc2cccc(C(=O)NC3CCCCC3)c2o1"
  category.label: "rule met"
- compound: "CC1CCN(C(=O)CSc2nnc(-c3cccnc3)n2C2CCCCC2)CC1"
  category.label: "rule met"
- compound: "CN(C)CCOC(C)(c1ccccc1)c1ccccn1 (stereo unspecified)"
  category.label: "rule not met"

Decide: fluorescence slope of `Fc1ccccc1-c1nc(-c2ccccc2)no1` >= -0.5?
rule not met

Could you verify whether the entry `O=C1c2ccccc2C(=O)N1OCc1ccccc1` shows fluorescence slope of no less than -0.5?
rule not met

In plain terms: is recorded fluorescence slope at least -0.5 for `CCc1ccc2c(CN(CC)Cc3nc4ccccc4c(=O)[nH]3)cc(=O)oc2c1` ?
rule not met

Could you tell me if the measured fluorescence slope of `[O-][n+]1onc2c1CCc1nnc(-c3ccccc3)cc1-2` reaches -0.5 or more?
rule not met

Item CCOC(=O)C(NC(=O)C1CCCN1C(=O)OCc1ccccc1)C(=O)OCC (stereo unspecified) with fluorescence slope of -0.5 or above?
rule not met

Can `COc1ccc(OC)c(NC(=O)C2CCN(c3cc(-c4ccccc4)nc4ncnn34)CC2)c1` be said to have fluorescence slope at or above -0.5?
rule not met

---

Task for the reader: assign each of the following compounds its reported inhibition.
# method.description: loss of swimming-algae plug formation – whole organism, Chlamydomonas reinhardtii, WT vs cilia-less mutant, absorbance, 96-well, primary screen (AID 463189);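 further: 0% = wild type cc124 cells in DMSO and 100% = ciliumless bld1 mutant cells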
# protocol.conditions: Chlamydomonas reinhardtii gravitaxis, OD600 absorbance, 2 days; at 10 µM; stronger effect = higher value
Give bare numbers, in %.

Solved cases (4 shown):
- compound: "CC(=O)[C@]1(O)Cc2c(O)c3c(c(O)c2[C@@H](O[C@H]2C[C@H](N)[C@H](O)[C@H](C)O2)C1)C(=O)c1ccccc1C3=O"
  result.units: "%"
  inhibition: -16.2
- compound: "CC(=O)OCC1=C(C(=O)O)N2C(=O)[C@@H](NC(=O)CSc3ccncc3)[C@H]2SC1"
  result.units: "%"
  inhibition: 6.67
- compound: "COc1cc2nc(N3CCN(C(=O)OCc4ccccc4)C(C(=O)NC(C)(C)C)C3)nc(N)c2cc1OC (centres undefined)"
  result.units: "%"
  inhibition: -7.21
- compound: "Nc1ccc2c3c(cccc13)C(=O)NC2=O"
  result.units: "%"
  inhibition: 32.5

Provide each entry's inhibition from the list below.
1. Cc1ccc(N2CN=c3s/c(=C\c4cccnc4)c(=O)n3C2)cc1
2. NC(=O)c1cc[n+](CC2=C(C(=O)O)N3C(=O)[C@@H](NC(=O)[C@@H](c4ccccc4)S(=O)(=O)[O-])[C@H]3SC2)cc1
3. COc1ccccc1N1CCN(CCN(C(=O)C2CCCCC2)c2ccccn2)CC1
4. CNCC[C@@H](Oc1ccc(C(F)(F)F)cc1)c1ccccc1
5. O=C(N[C@@H](Cc1ccccc1)C(=O)CCl)OCc1ccccc1

1. 36.5
2. -6.94
3. 9.85
4. 34
5. 0.05

---

For each entry below, report its cell count value.
# method.description: inhibitors of TNFa-induced NFkB p65 translocation, primary screen, imaging, HUVEC, MLSMR starter and 10KST1 sets (AID 438);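 further: compound added about 3h40 before a 20 min TNFalpha stimulation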
# protocol.conditions: HUVEC TNFa-induced p65 nuclear translocation; measured here: nuclei count (cytotoxicity indicator), at 2.08 µM
Give bare numbers.

Consider the worked cases shown below.
- compound: "O=S(=O)(NCCc1ccccn1)c1cccs1"
  cell count: 601
- compound: "O=C(OCC(=O)c1c[nH]c2ccccc12)C1=COCCO1"
  cell count: 579
- compound: "Cn1c(=O)n(C)c2cc(CNc3ccc(N4CCOCC4)c(C(=O)O)c3)ccc21"
  cell count: 350
- compound: "CCC(Sc1nc2n[nH]c(C)c2c(=N)n1-c1cc(Cl)ccc1C)C(=O)N1CCOCC1 (stereo not given)"
  cell count: 338
- compound: "Cc1sc2nc(SCC(=O)NCc3ccco3)n(CCc3ccccc3)c(=O)c2c1C"
  cell count: 589

Lab note: each compound below needs its cell count filled in.
1. Cn1nnnc1SCC(=O)Nc1ccccc1C(=O)NCc1ccccc1
2. Cc1ccc(NC(=O)N2CCC(c3nc4c(nnn4Cc4cccc(Cl)c4)c(=O)[nH]3)CC2)cc1

1. 368
2. 811

Would you mind listing cell count for each of the following compounds?
1. Cc1ccc(Cn2c(C)nc3c(c2=O)c2nc4ccccc4nc2n3Cc2ccco2)cc1
2. O=C(Cn1cnc2sc(-c3ccccc3)cc2c1=O)N1CCOCC1
3. CCCCc1c(O)nc(SCC(=O)c2ccccc2)[nH]c1=O

1. 623
2. 353
3. 375

---

# experimental.system: Voltage-gated potassium channel subunit beta-2 (Rattus norvegicus) (UniProt P62483)
# method.description: enhancers of rat Kvbeta2 NADPH turnover – biochemical, NADPH fluorescence, primary screen (AID 623);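 further: fluorescence intensity change per second fitted from 20 to 320 s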
# protocol.conditions: Recombinant KvBeta, NADPH fluorescence decrease slope, 10 min; at 10 µM; stronger effect = lower value
measured.quantity: NADPH fluorescence slope
One number for each entry.

// worked examples, NADPH fluorescence slope included
- compound: "CCC(=O)N(Cc1cc2c(C)ccc(C)c2[nH]c1=O)C1CCCCC1"
  NADPH fluorescence slope: "-3.7e-05"
- compound: "O=C(Cc1cccs1)Nc1ccccc1C(=O)O"
  NADPH fluorescence slope: "-3.3e-05"
- compound: "CCOc1ccc(OCC)c(NC(=O)C2CCN(S(=O)(=O)c3cnc[nH]3)CC2)c1"
  NADPH fluorescence slope: "-2.9e-05"

For every item below, please supply its NADPH fluorescence slope.
1. Cc1ccc(S(=O)(=O)N(C)c2ccc(OCC(=O)OCc3c(C)noc3C)cc2)cc1
2. CCOC(=O)c1cc(-c2ccc3c(c2)OCO3)nc2onc(C)c12

1. -3.3e-05
2. -7.8e-06
